Data provenance: patent US10112935B2

For each record, write down the corresponding Selectivity for ROCK2 over ROCK1 (IC50 ROCK1 / IC50 ROCK2).
Target: GST-tagged human ROCK2 catalytic domain 1-553 (Homo sapiens (Human))
Experiment: Inhibition of Rho-associated protein kinase isoform 2 (LANCE Ultra ULight-CREBtide FRET kinase assay)
Format: biochemical
Conditions: selectivity ROCK2 vs ROCK1

CCOc1ccc(CC(=O)Nc2cccc(-c3nnc(Nc4ccc5[nH]ncc5c4Cl)s3)c2)cc1 [Example 35BE] = >100
CC(=O)N(C)c1cccc(-c2nnc(Nc3ccc4[nH]ncc4c3Cl)s2)c1 [Example 35AZ] = >5
Cn1cc(C(=O)Nc2cc(-c3nnc(Nc4ccc5[nH]ncc5c4)s3)ccc2C(=O)O)cn1 = >5

// for each molecule in input: emit Selectivity for ROCK2 over ROCK1 (IC50 ROCK1 / IC50 ROCK2)
1. Clc1c(Nc2nnc(-c3cccn4cc(C5CCCO5)nc34)s2)ccc2[nH]ncc12 (centres unmarked) [Example 50C]
2. C=Cc1c(Nc2nnc(-c3cccc(NC(C)=O)c3)s2)ccc2[nH]ncc12.O=C(O)C(F)(F)F [Example 35K]
3. FC(F)(F)c1nc2c(-c3nnc(Nc4ccc5[nH]ncc5c4Cl)s3)cc(Br)cn2n1 [Example 50B]
4. CC(C)NC(=O)COc1cncc(-c2nnc(Nc3ccc4[nH]ncc4c3)s2)c1 [Example A-7]
5. CC(C)(O)c1ccc(-c2cn3cccc(-c4nnc(Nc5ccc6[nH]ncc6c5Cl)s4)c3n2)cc1 [Example 50F]

Output:
1. >5
2. >5
3. >100
4. >50
5. >5

* * *

Target: GST-tagged human ROCK2 catalytic domain 1-553 (Homo sapiens (Human), UniProt O75116)
Sequence (O75116 1-553): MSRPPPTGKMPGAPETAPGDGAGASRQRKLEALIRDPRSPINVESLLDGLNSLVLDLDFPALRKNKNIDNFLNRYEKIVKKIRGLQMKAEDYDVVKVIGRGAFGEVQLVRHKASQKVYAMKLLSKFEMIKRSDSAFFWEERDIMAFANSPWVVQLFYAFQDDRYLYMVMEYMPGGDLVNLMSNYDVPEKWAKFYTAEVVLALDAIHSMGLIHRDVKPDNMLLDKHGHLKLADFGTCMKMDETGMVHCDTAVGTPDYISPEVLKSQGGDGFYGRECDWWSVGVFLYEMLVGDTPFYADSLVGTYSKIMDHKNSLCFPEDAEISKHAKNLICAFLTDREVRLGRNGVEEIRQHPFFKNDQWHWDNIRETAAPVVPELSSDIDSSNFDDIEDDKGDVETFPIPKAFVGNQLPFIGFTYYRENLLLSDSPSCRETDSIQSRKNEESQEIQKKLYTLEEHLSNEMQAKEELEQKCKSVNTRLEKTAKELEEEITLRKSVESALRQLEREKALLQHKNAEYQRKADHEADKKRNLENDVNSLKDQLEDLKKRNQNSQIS
Assay: Inhibition of Rho-associated protein kinase isoform 2 (LANCE Ultra ULight-CREBtide FRET kinase assay)
Type: biochemical
Settings: selectivity ROCK2 vs ROCK1
Method: Exemplary compounds were tested for ability to inhibit Rho-associated protein kinase isoform 1 (ROCK1) and Rho-associated protein kinase isoform 2 (ROCK2). Assay procedures and results are described below. Protein constructs were purified from a baculovirus expression system. The peptide substrate was fluorescent LANCE® Ultra ULight-CREBtide: […] […] The flurorescence resonance energy transfer (FRET) signals were read and analyzed on an Envision™ 2103 Multilabel Reader (Perkin Elmer).
Recorded endpoint: Selectivity for ROCK2 over ROCK1 (IC50 ROCK1 / IC50 ROCK2)

See these solved cases before continuing.
Cn1c(C2CCOCC2)nc2c(-c3nnc(Nc4ccc5[nH]ncc5c4)s3)cccc21 [Example 56F] = >100
O=C(Nc1cncc(-c2nnc(Nc3ccc4[nH]ncc4c3)s2)c1)c1c[nH]cn1 = >100
Clc1c(Nc2nnc(-c3cccc(-c4nccn4C4COC4)c3)s2)ccc2[nH]ncc12 = >100
FC(F)(F)c1cn2cccc(-c3nnc(Nc4ccc5[nH]ncc5c4Cl)s3)c2n1 [Example 52C] = >100
CC(=O)Nc1cc(-c2ncco2)cc(-c2nnc(Nc3ccc4[nH]ncc4c3Cl)s2)c1.O=C(O)C(F)(F)F [Example 46M] = >100

// for each molecule in input: emit Selectivity for ROCK2 over ROCK1 (IC50 ROCK1 / IC50 ROCK2)
1. N#Cc1cccc(-c2nnc(Nc3ccc4[nH]ncc4c3Cl)s2)c1 [Example 35Z]
2. CCc1cn2cccc(-c3nnc(Nc4ccc5[nH]ncc5c4Cl)s3)c2n1 [Example 52D]

Output:
>100
>5

// for each molecule in input: emit Selectivity for ROCK2 over ROCK1 (IC50 ROCK1 / IC50 ROCK2)
1. CC(C(=O)Nc1cccc(-c2nnc(Nc3ccc4[nH]ncc4c3Cl)s2)c1)c1ccc(F)cc1 (centres unmarked) [Example 35E]
2. Cn1cc(C(=O)Nc2cc(-c3nnc(Nc4ccc5[nH]ncc5c4Cl)s3)ccc2C(F)(F)F)cn1 [Example 48N]

Output:
1: >50; 2: >100

// for each molecule in input: emit Selectivity for ROCK2 over ROCK1 (IC50 ROCK1 / IC50 ROCK2)
1. Nc1cncc(-c2nnc(Nc3ccc4[nH]ncc4c3)s2)c1
2. O=C(Nc1cccc(-c2nnc(Nc3ccc4[nH]ncc4c3Cl)s2)c1)c1cc(O)cc(O)c1 [Example 35AS]

Output:
["<5", ">50"]

* * *

Molecular target: GST-tagged human ROCK1 catalytic domain 1-477 (Homo sapiens (Human), UniProt Q13464)
Sequence (Q13464 1-477): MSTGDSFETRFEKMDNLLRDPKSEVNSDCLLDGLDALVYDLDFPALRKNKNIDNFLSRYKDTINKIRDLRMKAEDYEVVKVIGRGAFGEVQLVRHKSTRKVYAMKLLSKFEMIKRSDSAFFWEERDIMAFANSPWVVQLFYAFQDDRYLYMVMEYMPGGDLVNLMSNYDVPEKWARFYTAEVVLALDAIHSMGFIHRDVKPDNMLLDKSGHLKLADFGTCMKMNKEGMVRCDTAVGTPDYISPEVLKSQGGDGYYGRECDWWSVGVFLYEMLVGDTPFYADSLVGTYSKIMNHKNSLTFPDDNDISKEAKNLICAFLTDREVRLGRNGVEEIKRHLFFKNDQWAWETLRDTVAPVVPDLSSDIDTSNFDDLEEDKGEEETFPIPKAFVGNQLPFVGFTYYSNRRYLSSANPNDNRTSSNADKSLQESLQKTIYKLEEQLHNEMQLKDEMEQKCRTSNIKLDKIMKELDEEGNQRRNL
Assay: Inhibition of Rho-associated protein kinase isoform 1 (LANCE Ultra ULight-CREBtide FRET kinase assay)
Type: biochemical
Settings: 30 μM was the highest concentration analyzed
Protocol: Exemplary compounds were tested for ability to inhibit Rho-associated protein kinase isoform 1 (ROCK1) and Rho-associated protein kinase isoform 2 (ROCK2). Assay procedures and results are described below. Protein constructs were purified from a baculovirus expression system. The peptide substrate was fluorescent LANCE® Ultra ULight-CREBtide: […] […] The flurorescence resonance energy transfer (FRET) signals were read and analyzed on an Envision™ 2103 Multilabel Reader (Perkin Elmer).
For each record, write down the corresponding IC50.

See these solved cases before continuing.
Clc1c(Nc2nnc(-c3cccn4cc(C5CCCO5)nc34)s2)ccc2[nH]ncc12 (centres unmarked) [Example 50C] = < 1 µM
CC(C)(O)CNC(=O)c1cccc(-c2nnc(Nc3ccc4[nH]ncc4c3Cl)s2)c1 [Example 75F] = 1 to 15 µM
Cn1ccnc1-c1cccc(-c2nnc(Nc3ccc4[nH]ncc4c3Cl)s2)c1.O=C(O)C(F)(F)F [Example 46E] = > 30 µM
Clc1c(Nc2nnc(-c3cccn4cc(C5CCNCC5)nc34)s2)ccc2[nH]ncc12 [Example 50H] = 1 to 15 µM
C[C@H](N)C(=O)Nc1cccc(-c2nnc(Nc3ccc4[nH]ncc4c3Cl)s2)c1 [Example 35AA] = 1 to 15 µM
Nc1cccc(-c2nsc(Nc3ccc4[nH]ncc4c3)n2)c1 [Example 35CU] = > 30 µM

// for each compound in input: emit IC50
1. O=C(Nc1cccc(-c2nnc(Nc3ccc4[nH]ncc4c3)s2)n1)c1c[nH]cn1
2. c1cc(-c2ncco2)cc(-c2nnc(Nc3ccc4[nH]ncc4c3)s2)c1
3. OC1(c2cccc(-c3nnc(Nc4ccc5[nH]ncc5c4Cl)s3)c2)COC1 [Example 35AJ]
4. c1cc(-c2cn[nH]c2)cc(-c2nnc(Nc3ccc4[nH]ncc4c3)s2)c1
5. Cn1cc(C(=O)Nc2cncc(-c3nnc(Nc4ccc5[nH]ncc5c4)s3)c2)cn1.O=C(O)C(F)(F)F [Example 35CA]
6. COc1ccc(CC(=O)Nc2cccc(-c3nnc(Nc4ccc5[nH]ncc5c4Cl)s3)c2)cc1 [Example 35BQ]

Output:
1. > 30 µM
2. > 30 µM
3. > 30 µM
4. > 30 µM
5. < 1 µM
6. < 1 µM

// for each compound in input: emit IC50
1. O=C(O)C(F)(F)F.O=C(O)c1cc(-c2ncco2)cc(-c2nnc(Nc3ccc4[nH]ncc4c3Cl)s2)c1 [Example 46N]
2. CC(C(=O)Nc1cccc(-c2nnc(Nc3ccc4[nH]ncc4c3Cl)s2)c1)c1ccc(F)cc1 (centres unmarked) [Example 35E]
3. NCCS(=O)(=O)Nc1cccc(-c2nnc(Nc3ccc4[nH]ncc4c3)s2)c1
4. Nc1ccnc(-c2nnc(Nc3ccc4[nH]ncc4c3)s2)c1.O=C(O)C(F)(F)F [Example 35CT]
5. COc1cccc(-c2nnc(N(CCO)c3ccc4[nH]ncc4c3)s2)c1 [Example A-21]

Output:
< 1 µM
1 to 15 µM
1 to 15 µM
> 30 µM
15 to 30 µM

* * *

Molecular target: GST-tagged human ROCK1 catalytic domain 1-477 (Homo sapiens (Human))
Assay: Inhibition of Rho-associated protein kinase isoform 1 (LANCE Ultra ULight-CREBtide FRET kinase assay)
Type: biochemical
Conditions: 30 μM was the highest concentration analyzed
Experimental: Exemplary compounds were tested for ability to inhibit Rho-associated protein kinase isoform 1 (ROCK1) and Rho-associated protein kinase isoform 2 (ROCK2). Assay procedures and results are described below. Protein constructs were purified from a baculovirus expression system. The peptide substrate was fluorescent LANCE® Ultra ULight-CREBtide: […] […] The flurorescence resonance energy transfer (FRET) signals were read and analyzed on an Envision™ 2103 Multilabel Reader (Perkin Elmer).
Recorded endpoint: IC50

See these solved cases before continuing.
O=C(Nc1cc(-c2nnc(Nc3ccc4[nH]ncc4c3Cl)s2)ccn1)N1CCOCC1 [Example 35A] = < 1 µM
CC(=O)Nc1cc(-c2nnc(Nc3ccc4[nH]ncc4c3Cl)s2)ccn1.O=C(O)C(F)(F)F [Example 35AE] = < 1 µM
CC(C)NC(=O)COc1cncc(-c2nnc(Nc3ccc4[nH]ncc4c3)s2)c1 [Example 75L] = > 30 µM

Shift focus to the following entry.
Task: // query IC50 value for entry CC(=O)N(C)c1cccc(-c2nnc(Nc3ccc4[nH]ncc4c3Cl)s2)c1 [Example 35AZ]
Output: > 30 µM

* * *

For each record, write down the corresponding IC50.
Molecular target: GST-tagged human ROCK2 catalytic domain 1-553 (Homo sapiens (Human))
Test: Inhibition of Rho-associated protein kinase isoform 2 (LANCE Ultra ULight-CREBtide FRET kinase assay)
Assay type: biochemical
Details: 30 μM was the highest concentration analyzed

See these solved cases before continuing.
CC(C)(C)C(=O)Nc1cccc(-c2nnc(Nc3ccc4[nH]ncc4c3Cl)s2)c1 [Example 35O] = < 1 µM
Cn1cc(C(=O)Nc2ccc(-c3nnc(Nc4ccc5[nH]ncc5c4)s3)cc2)cn1 = > 30 µM
Cn1c(C2CCOCC2)nc2c(-c3nnc(Nc4ccc5[nH]ncc5c4)s3)cccc21 [Example 56F] = < 1 µM
CC(=O)Nc1cc(CSC(C)=O)cc(-c2nnc(Nc3ccc4[nH]ncc4c3Cl)s2)c1 = < 1 µM
O=C(Nc1cccc(-c2nnc(Nc3ccc4[nH]ncc4c3Cl)s2)c1)c1ccc(F)cc1 [Example 35AW] = < 1 µM

// for each compound in input: emit IC50
1. Cn1cc(CC(=O)Nc2cc(-c3nnc(Nc4ccc5[nH]ncc5c4Cl)s3)ccn2)cn1
2. O=C(Nc1cccc(-c2nnc(Nc3ccc4[nH]ncc4c3)s2)c1)c1c[nH]cn1
3. CC(=O)Nc1cccc(-c2nnc(Nc3ccc4[nH]ncc4c3C(F)(F)F)s2)c1 [Example 35AL]
4. COc1cccc(-c2nnc(N(CCO)c3ccc4[nH]ncc4c3)s2)c1 [Example A-21]
5. CCN(CC)Cc1cc(NC(C)=O)cc(-c2nnc(Nc3ccc4[nH]ncc4c3Cl)s2)c1.O=C(O)C(F)(F)F [Example 48A]
6. CN(c1nnc(-c2cccc(NC(=O)Cc3ccc(F)cc3)c2)s1)c1ccc2[nH]ncc2c1Cl [Example 75U]
7. CC1CCN(C(=O)Nc2cccc(-c3nnc(Nc4ccc5[nH]ncc5c4)s3)c2)C1 (stereo not drawn)
8. CC(C(=O)Nc1cccc(-c2nnc(Nc3ccc4[nH]ncc4c3Cl)s2)c1)c1ccc(F)cc1 (stereo not drawn) [Example 35E]

Output:
1: < 1 µM; 2: < 1 µM; 3: < 1 µM; 4: 15 to 30 µM; 5: < 1 µM; 6: > 30 µM; 7: < 1 µM; 8: < 1 µM

// for each compound in input: emit IC50
1. Cc1coc(-c2cc(-c3nnc(Nc4ccc5[nH]ncc5c4Cl)s3)ccn2)n1
2. Cn1cccc(-c2nnc(Nc3ccc4[nH]ncc4c3Cl)s2)c1=O.O=C(O)C(F)(F)F [Example 56H]
3. O=C(c1ccnnc1)N1CCN(c2nnc(Nc3ccc4[nH]ncc4c3)s2)CC1
4. Cn1cc(C(=O)Nc2cc(-c3nnc(Nc4ccc5[nH]ncc5c4)s3)ccc2C(=O)O)cn1

Output:
1: < 1 µM; 2: < 1 µM; 3: 1 to 15 µM; 4: < 1 µM

// for each compound in input: emit IC50
1. N[C@@H]1CCN(c2nnc(Nc3ccc4[nH]ncc4c3)s2)C1
2. NC(=O)c1cc(-c2ncco2)cc(-c2nnc(Nc3ccc4[nH]ncc4c3Cl)s2)c1 [Example 46L]
3. CN1CCN(c2cccc(-c3nnc(Nc4ccc5[nH]ncc5c4Cl)s3)c2)C(=O)C1
4. c1cnc(-c2nnc(Nc3ccc4[nH]ncc4c3)s2)cn1
5. O=C(Cc1cnccn1)Nc1cccc(-c2nnc(Nc3ccc4[nH]ncc4c3Cl)s2)c1 [Example 35BP]

Output:
1. 1 to 15 µM
2. < 1 µM
3. 1 to 15 µM
4. 1 to 15 µM
5. < 1 µM
